As shown below, each of these compounds has a reported diameter of the inhibition zone (DIZ) value.
Tested on: Enterococcus faecalis
PROCEDURE_TEXT: Antibacterial activity against Enterococcus faecalis ATCC 29212 assessed as diameter of inhibition zone by CLSI based disc-diffusion method
Assay type: functional
Your answer should be a plain number; it is taken to be in mm.

Consider the worked cases shown below.
COMPOUND	diameter of the inhibition zone (DIZ) / mm
CC(=O)CSc1ccc2c(c1F)[Si](C)(C)OB2O	16
C[Si]1(C)OB(O)c2cc(F)c(SC3CC(=O)N(c4ccc(Br)c(C(F)(F)F)c4)C3=O)c(F)c21 (stereo not given)	18
CCOP(=O)(OCC)Sc1c(F)cc2c(c1F)[Si](C)(C)OB2O	11
C[Si]1(C)OB(O)c2ccc(SCCC(=O)OCCCCCC[n+]3ccccc3)c(F)c21.O=S(=O)([O-])C(F)(F)F	12

Here's the next entry for you.
Requested field: diameter of the inhibition zone (DIZ). Item: `C[Si]1(C)OB(O)c2cc(F)c(SCCC(N)=O)c(F)c21`
12

---

PROCEDURE_TEXT: Selectivity ratio of IC50 for cytotoxicity against human MRC5 cells assessed as inhibition of cell growth to MIC for antibacterial activity against methicillin-resistant Staphylococcus aureus NMI 1712 K assessed as inhibition of microbial growth by broth-microdilution method
Assay type: toxicity, cell-based
As shown below, each of these compounds has a reported selectivity ratio value.
The answer should be a number; do not append a unit.

Consider the worked cases shown below.
COMPOUND	selectivity ratio
C[Si]1(C)OB(O)c2ccc(SC(=O)c3ccc(C(F)(F)F)cc3)c(F)c21	8.9
C[Si]1(C)OB(O)c2ccc(SCC(=O)c3ccccc3)c(F)c21	40.4
C[Si]1(C)OB(O)c2cc(F)c(SCCS(=O)(=O)c3ccccc3)c(F)c21	19.5
C[Si]1(C)OB(O)c2cc(F)c(SC3CC(=O)NC3=O)c(F)c21 (configuration not stated)	13.4

Here's the next entry for you.
Requested field: selectivity ratio. Item: `C[Si]1(C)OB(O)c2cc(F)c(SCCC#N)c(F)c21`
11.2

---

PROCEDURE_TEXT: Selectivity ratio of IC50 for cytotoxicity against human MRC5 cells assessed as inhibition of cell growth to MIC for antibacterial activity against methicillin-resistant Staphylococcus aureus ATCC 43300 assessed as inhibition of microbial growth
Format: toxicity, cell-based
As shown below, each of these compounds has a reported selectivity ratio value.
The answer should be a number; do not append a unit.

Requested field: selectivity ratio. Item: `C[Si]1(C)OB(O)c2ccc(SC(=O)c3ccc(C(F)(F)F)cc3)c(F)c21`
8.9

Requested field: selectivity ratio. Item: `C[Si]1(C)OB(O)c2ccc(SCC(=O)c3ccccc3)c(F)c21`
40.4

Requested field: selectivity ratio. Item: `C[Si]1(C)OB(O)c2cc(F)c(S(=O)(=O)Nc3ccc(F)cc3)c(F)c21`
0.7

Requested field: selectivity ratio. Item: C[Si]1(C)OB(O)c2cc(F)c(SC3CC(=O)N(c4ccc(Br)c(C(F)(F)F)c4)C3=O)c(F)c21 (configuration not stated)
1.5

---

Test system: Enterococcus faecalis
PROCEDURE_TEXT: Antibacterial activity against Enterococcus faecalis ATCC 29212 assessed as diameter of inhibition zone by CLSI based disc-diffusion method
Format: functional
As shown below, each of these compounds has a reported diameter of the inhibition zone (DIZ) value.
Your answer should be a plain number; it is taken to be in mm.

COMPOUND	QUANTITY_KIND	RECORDED_NUMBER
C[Si]1(C)OB(O)c2ccc(SCC(=O)c3ccccc3)c(F)c21	diameter of the inhibition zone (DIZ)	17
C[Si]1(C)OB(O)c2ccc(SC3CC(=O)N(c4ccc(Br)c(C(F)(F)F)c4)C3=O)c(F)c21 (stereo not given)	diameter of the inhibition zone (DIZ)	17
Cc1cc(NC(=O)CCSc2c(F)cc3c(c2F)[Si](C)(C)OB3O)no1	diameter of the inhibition zone (DIZ)	12
C[Si]1(C)OB(O)c2cc(F)c(SCCC(=O)Nc3cnccn3)c(F)c21	diameter of the inhibition zone (DIZ)	13
C[Si]1(C)OB(O)c2ccc(SC3CC(=O)N(c4ccc(F)cc4)C3=O)c(F)c21 (stereo not given)	diameter of the inhibition zone (DIZ)	20

Here's the next entry for you.
Requested field: diameter of the inhibition zone (DIZ). Item: CC(=O)NC[C@H]1CN(c2ccc(N3CCOCC3)c(F)c2)C(=O)O1 [LINEZOLID]
15

Each recorded value in this set is attributed to ChEMBL document CHEMBL5532704.
